variants and their reported self-cleavage
B1: HDV Ribozyme (parent)
chain: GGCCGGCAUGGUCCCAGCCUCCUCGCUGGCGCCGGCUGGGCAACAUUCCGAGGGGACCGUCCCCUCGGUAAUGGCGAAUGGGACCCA

variants of: B1; assay: self-cleavage, relative activity (ratio to wild type); higher = more cleavage; co-transcriptional
The answer should be written as a number, with no unit following it.

Before answering, review these 5 worked examples.
mutation_spec	value_measured
G39A G80C	0.145
A70U A71G	1.09
U47A G59U	0.933
A16U G40A	0.928
G1C U72A	0.32

Quick check: self-cleavage of U47C G59U ? 0.95

Quick check: self-cleavage of U47A U72C ? 0.688

Quick check: self-cleavage of C36G A77C ? 0

Quick check: self-cleavage of G35U G74C ? 0.272

Quick check: self-cleavage of C32A C62G ? 0.0489

Quick check: self-cleavage of G17A U37G ? 0.172

Value source: the RNAGym collection of RNA variant scans (doi:10.7554/elife.80360)
